target.or.test.system: Factor Xa (Enzyme Research Laboratories) (human, UniProt P00742 41-488, limits assumed)
Sequence (P00742 41-488 limits assumed): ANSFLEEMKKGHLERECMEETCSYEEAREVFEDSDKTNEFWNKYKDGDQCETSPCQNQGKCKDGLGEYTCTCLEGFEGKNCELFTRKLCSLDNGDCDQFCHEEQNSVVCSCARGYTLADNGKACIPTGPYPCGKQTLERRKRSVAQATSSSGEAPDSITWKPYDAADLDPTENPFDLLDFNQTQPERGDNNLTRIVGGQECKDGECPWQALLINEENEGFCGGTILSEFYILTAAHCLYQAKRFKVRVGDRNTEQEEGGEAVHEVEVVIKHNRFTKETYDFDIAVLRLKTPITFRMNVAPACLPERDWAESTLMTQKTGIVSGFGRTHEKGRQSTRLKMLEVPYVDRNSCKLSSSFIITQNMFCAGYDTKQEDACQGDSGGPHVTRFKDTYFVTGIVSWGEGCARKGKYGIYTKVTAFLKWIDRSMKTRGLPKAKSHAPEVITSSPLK
assay.protocol: cell-based or functional assay
Bridge positions count the residues as written; N and C are the ends. Square brackets hold non-standard residues; d marks the D form. Ends that are not written are not given here. mXylyl = xylyl linker from dibromoxylene joining the two cysteines; NMeS = CN[C@@H](CO)C(=O)O
property.name: Factor Xa IC50

Here's what some known entries look like.
- binder: "MCNYWSPWTECSA-NH2 (cysteine pairing not given here) [R2104]"
  property.name: "Factor Xa IC50"
  result: "> 100 µM"
- binder: "MCE[NMeS]ICRV-NH2 (linker 2-6 via mXylyl) [R2019]"
  property.name: "Factor Xa IC50"
  result: "> 10 µM"
- binder: "Ac-CASICRV-NH2 (linker 1-5 via mXylyl; not fully specified (residue 2); printed as [mXylyl(1,5)]Ac-C-a-SICRV-NH2) [R2047]"
  property.name: "Factor Xa IC50"
  result: "> 100 µM"

Factor Xa IC50 for Ac-CESICRV-NH2 (linker 1-5 via mXylyl) [R2023] is > 7 µM

The measured values listed here are drawn from patent US20150166606A1.
